System: SF-539 CNS
assayInfo: NCI-60 one-dose screen, 48 h
condition: 10 µM unless noted
This is part of a sample that, as a whole, favours compounds with a hit. Of some 83,000 tested, about 20% had one in any assay. Active and inactive are the calls of the source. Rule for the calls: active = growth percent below 10; inactive = the rest.
A correct response names exactly one class from active, inactive

CCCCCCCCCCCCSC(=N)N: inactive
COc1cc2c(c(OC)c1OC)-c1ccc(NCc3ccccc3)c(=O)cc1[C@@H](NC(C)=O)CC2: active

# input for lookup
-- ask Tell me the assay call for O=C1C(=O)c2cc([N+](=O)[O-])ccc2-c2ccccc21 please.
-- reply active

* * *

Tested on: EKVX NSCLC
assayInfo: NCI-60 one-dose screen, 48 h (100 = growth as untreated, 0 = no growth, -100 = all killed)
condition: 10 µM unless noted
This is part of a sample that, as a whole, favours compounds with a hit. Of some 83,000 tested, about 20% had one in any assay.
endpointLabel: growth (%)
Give the value in % but do not write % after it.

Example molecules with recorded growth:
O=C1/C(=C\c2ccc([N+](=O)[O-])cc2)CS(=O)(=O)C/C1=C/c1ccc([N+](=O)[O-])cc1: -63.4
CCCCCCC1N=C(N)N=C(N)N1c1cccc(Cl)c1 (centres undefined): 76.8
CC(=O)OC1CC2CCC1(C)C2(C)C (centres undefined): 102

-- ask Returns the measured growth for the input molecule. Input: C/C(=N\NC(=S)N1CC2CCC(CC2)C1)c1ccccn1
-- reply -6.66

* * *

Tested on: HOP-92 NSCLC
assayInfo: NCI-60 one-dose screen, 48 h (100 = growth as untreated, 0 = no growth, -100 = all killed)
condition: 10 µM unless noted
Experimental: Growth inhibition of the HOP-92 human Non-Small Cell Lung tumor cell line is measured as a screen for anti-cancer activity. Cells are grown in 96 well plates and exposed to the test compound for 48 hours. Compounds are tested at a single concentration, which is 10^-5 M for most compounds. The reported endpoint is percent growth (GI% or GIPRCNT), where numbers from 0 - 100% represent growth inhibition, and numbers from -100% - 0 represent cell death. […]
Compounds without any hit were thinned out: in the full panel of roughly 83,000, 20% have a hit.
# reported growth; entries follow
Give the value in % but do not write % after it.

-- ask Returns the measured growth for the input compound. Input: COc1ccc(NC(=O)/C(=C/N2C(=O)/C(=C/c3ccc(OC)c(OC)c3)NC2=S)C(C)=O)cc1
-- reply 3.15

* * *

Test system: HOP-92 NSCLC
assayInfo: NCI-60 one-dose screen, 48 h (100 = growth as untreated, 0 = no growth, -100 = all killed)
condition: 10 µM unless noted
About 83,000 compounds went through this panel and 20% of them were active in at least one assay; those are over-represented in the sample as a whole.
Use 1.0 when the recorded growth is no lower than 70%; use 0.0 when it is lower.

Completed entries (count: 5):
CC1=CC(=O)C=CC1(C)C(Cl)(Cl)Cl (stereo unspecified): 1.0
CCC(C)C(N)C(=O)NC(CC(N)=O)C(=O)NC(CC(C)C)C(=O)NC(CCCCN)C(=O)NC(C)C(=O)NC(CC(C)C)C(=O)NC(C)C(=O)NC(C)C(=O)NC(CC(C)C)C(=O)NC(C)C(=O)NC(CCCCN)C(=O)NC(CCCCN)C(=O)NC(C(=O)NC(CC(C)C)C(N)=O)C(C)CC (stereo unspecified): 0.0
Nc1ccc(-c2ccc(N)c(S(=O)(=O)O)c2)cc1S(=O)(=O)O: 1.0
c1ccc(C2NCCNC2c2ccccc2)cc1 (stereo unspecified): 1.0
NC(=S)N/N=C\c1nccc2c(N)cccc12: 0.0

-- ask Check this compound for growth at or above 70%: CCCCCCCCCCCC[n+]1ccc(CCCCCCCCC)cc1
-- reply 0.0

-- ask Check this compound for growth at or above 70%: CCN(CC)CCNC(Cc1ccccc1)c1ccc(OCc2ccccc2)cc1 (stereo unspecified)
-- reply 0.0

* * *

Tested on: HOP-92 NSCLC
assayInfo: NCI-60 one-dose screen, 48 h (100 = growth as untreated, 0 = no growth, -100 = all killed)
condition: 10 µM unless noted
About 83,000 compounds went through this panel and 20% of them were active in at least one assay; those are over-represented in the sample as a whole.
endpointLabel: growth (%)
Give the value in % but do not write % after it.

N#CCc1cccc2ccccc12: 87.2
Clc1ccc(Cc2nc3ccccc3s2)cc1: 122

-- ask Returns the measured growth for the input compound. Input: CCCCCCCCc1cc(Cl)c(O)c(Cl)c1
-- reply 99.5

-- ask Returns the measured growth for the input compound. Input: COc1c(C)c2c(c(O)c1C/C=C(\C)CCC(=O)O)C(=O)OC2
-- reply 73.9

Data origin: PubChem BioAssay (NCI)
